Values were extracted from the supplement of paper PMC7877785.

assay: self-splicing fitness, log relative to wild type (ln ratio); higher = more splicing; Tetrahymena group I intron in knt gene, E. coli kanamycin selection, DiMSum; sequences stand for … in CUCUCU…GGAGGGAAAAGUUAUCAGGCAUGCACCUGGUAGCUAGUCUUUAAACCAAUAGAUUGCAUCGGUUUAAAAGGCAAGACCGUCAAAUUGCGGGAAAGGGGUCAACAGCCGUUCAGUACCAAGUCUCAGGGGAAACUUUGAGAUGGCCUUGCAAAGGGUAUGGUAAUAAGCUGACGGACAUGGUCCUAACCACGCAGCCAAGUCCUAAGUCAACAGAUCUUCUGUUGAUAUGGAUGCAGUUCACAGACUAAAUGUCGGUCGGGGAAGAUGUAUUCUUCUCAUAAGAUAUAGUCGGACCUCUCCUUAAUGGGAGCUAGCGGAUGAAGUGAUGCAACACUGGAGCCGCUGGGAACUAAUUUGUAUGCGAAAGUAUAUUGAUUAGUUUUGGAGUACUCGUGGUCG; conditions: 30 °C;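 note: selection with 25 µg/mL kanamycin versus none on LB agar overnight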
Recorded self-splicing fitness (ln) determines the label; the label ranges are bucket A: < -3; bucket B: ≥ -3 and < -2; bucket C: ≥ -2

Query: Kindly identify the class of AAGUAGCAAUAUUACGAACA .
Result: bucket C

Query: Kindly identify the class of GAACAGCAAUAUUACGCGGC .
Result: bucket A

Query: Kindly identify the class of CCACAGCAAUAUUACGGACG .
Result: bucket C

Query: Kindly identify the class of UAAAAGCAAUAUUACGGAGU .
Result: bucket A

Query: Kindly identify the class of CUUUAGCAAUAUUACGAACU .
Result: bucket A

Query: Kindly identify the class of CGUCAGCAAUAUUACGAUAA .
Result: bucket C

Query: Kindly identify the class of UCCGAGCAAUAUUACGUCCU .
Result: bucket B

Query: Kindly identify the class of AGAGAGCAAUAUUACGCCGC .
Result: bucket A

Query: Kindly identify the class of GCAUAGCAAUAUUACGUAGU .
Result: bucket B

Query: Kindly identify the class of GCACAGCAAUAUUACGGUAA .
Result: bucket C

Query: Kindly identify the class of UCCCAGCAAUAUUACGCCUA .
Result: bucket C

Query: Kindly identify the class of GUAUAGCAAUAUUACGACCU .
Result: bucket C

Query: Kindly identify the class of AGAUAGCAAUAUUACGUAGU .
Result: bucket B

Query: Kindly identify the class of CGACAGCAAUAUUACGGUAU .
Result: bucket A

Query: Kindly identify the class of UGAAAGCAAUAUUACGCGAA .
Result: bucket C

Query: Kindly identify the class of CGCCAGCAAUAUUACGUACC .
Result: bucket A

Query: Kindly identify the class of UGAGAGCAAUAUUACGGGGG .
Result: bucket A

Query: Kindly identify the class of GCACAGCAAUAUUACGUUCA .
Result: bucket C

Query: Kindly identify the class of UCACAGCAAUAUUACGCCAG .
Result: bucket C

Query: Kindly identify the class of AGGCAGCAAUAUUACGAUUC .
Result: bucket C

Query: Kindly identify the class of GGCUAGCAAUAUUACGAGGA .
Result: bucket C

Query: Kindly identify the class of CGAAAGCAAUAUUACGCAAA .
Result: bucket B

Query: Kindly identify the class of CGCAAGCAAUAUUACGGUCG .
Result: bucket B

Query: Kindly identify the class of UCGCAGCAAUAUUACGGCUU .
Result: bucket C

Query: Kindly identify the class of GGUAAGCAAUAUUACGUGAU .
Result: bucket C

Query: Kindly identify the class of GGUGAGCAAUAUUACGAGGU .
Result: bucket B

Query: Kindly identify the class of AUUCAGCAAUAUUACGACCC .
Result: bucket C

Query: Kindly identify the class of AAUCAGCAAUAUUACGCCCA .
Result: bucket C

Query: Kindly identify the class of CCAGAGCAAUAUUACGGAAC .
Result: bucket B

Query: Kindly identify the class of GAGGAGCAAUAUUACGAAAC .
Result: bucket B

Query: Kindly identify the class of UGAUAGCAAUAUUACGUGUA .
Result: bucket B

Query: Kindly identify the class of CUUAAGCAAUAUUACGUAAA .
Result: bucket A

Query: Kindly identify the class of GACCAGCAAUAUUACGACGG .
Result: bucket B
